Collected from the literature: Ki of various compounds toward 5-hydroxytryptamine receptor 6 (Homo sapiens, UniProt P50406).

>  <Compound>
CN(C)CCCN1C(=O)c2ccccc2/C=C\c2ccccc21

>  <Ki>
23.4 µM

$$$$
>  <Compound>
O=C(CCCN1CCCN(c2ccc(Cl)cc2)CC1)c1ccc(F)cc1

>  <Ki>
0.296 µM

$$$$
>  <Compound>
CSc1nn2c(C)cc(C)nc2c1S(=O)(=O)c1ccc(F)c(Cl)c1

>  <Ki>
0.0038 µM

$$$$
>  <Compound>
O=S(=O)(NC1CCN(CCOc2cc(Cl)ccc2Cl)C1)c1ccc(Cl)s1 (stereo not given)

>  <Ki>
0.225 µM

$$$$
>  <Compound>
O=C(CCCN1CCC(c2noc3cc(F)ccc23)CC1)c1cc2c3c(c1)CCN3C(=O)CC2

>  <Ki>
0.241 µM

$$$$
>  <Compound>
O=S(=O)(N[C@@H]1CCN(CCOc2ccccc2-c2ccccc2)C1)c1ccc(F)cc1

>  <Ki>
0.102 µM

$$$$
>  <Compound>
CNCCn1cc(S(=O)(=O)c2c(Cl)nc3sccn23)c2cccnc21

>  <Ki>
0.0009 µM

$$$$
>  <Compound>
CN1CCCC(n2cc(S(=O)(=O)c3cccc(F)c3)c3cccnc32)C1 (stereo not given)

>  <Ki>
0.0047 µM

$$$$
>  <Compound>
CS(=O)(=O)Oc1ccc2c(c1)CN(CC[C@H]1CC[C@H](NC(=O)/C=C/c3ccc(F)cc3)CC1)C2

>  <Ki>
> 10 µM

$$$$
>  <Compound>
O=C1c2ccccc2S(=O)(=O)N1CCCCCCN1CCN(c2cccc(Cl)c2Cl)CC1

>  <Ki>
0.072 µM

$$$$

---

Collected from the literature: pKi of various compounds toward 5-hydroxytryptamine receptor 6 (Homo sapiens, UniProt P50406).
pKi: −log10 of the molar value.

>  <Compound>
O=C1c2ccccc2S(=O)(=O)N1CCCCCN1CCN(c2ccc(Cl)cc2)CC1

>  <Bound operator>
=

>  <pKi>
6.15

$$$$
>  <Compound>
CN1CCN(c2nc(N)nc(Cc3ccccc3)n2)CC1

>  <Bound operator>
=

>  <pKi>
7.02

$$$$
>  <Compound>
COc1ccc(C(F)(F)F)cc1NS(=O)(=O)c1ccc(OC)c(N2CCNCC2)c1

>  <Bound operator>
=

>  <pKi>
8.40

$$$$
>  <Compound>
O=S(=O)(NC1CCN(CCOc2ccccc2)C1)c1ccc(F)cc1 (stereo unspecified)

>  <Bound operator>
=

>  <pKi>
6.61

$$$$
>  <Compound>
O=S(=O)(NC1CCN(CCOc2ccccc2-c2ccccc2)CC1)c1cccc(Cl)c1

>  <Bound operator>
=

>  <pKi>
6.56

$$$$
>  <Compound>
CN1CCN(c2cn(S(=O)(=O)c3ccccc3Br)c3ccccc23)CC1

>  <Bound operator>
=

>  <pKi>
7.82

$$$$
>  <Compound>
NCCn1cc(S(=O)(=O)c2cc(Cl)cc(Cl)c2)c2cccnc21

>  <Bound operator>
=

>  <pKi>
8.54

$$$$
>  <Compound>
NCc1cn(S(=O)(=O)c2ccccc2)c2ccccc12

>  <Bound operator>
=

>  <pKi>
8.50

$$$$
>  <Compound>
CCC1C=NN(/C(N)=N/S(=O)(=O)c2cccc(Cl)c2)C1 (stereo unspecified)

>  <Bound operator>
=

>  <pKi>
7.62

$$$$
>  <Compound>
CN1CCC(N(C)C(=O)C2CN(S(=O)(=O)c3ccccc3)c3ccccc32)CC1 (racemic)

>  <Bound operator>
=

>  <pKi>
6.50

$$$$
>  <Compound>
CCN/C(=N\S(=O)(=O)c1ccc2cc[nH]c2c1)N1CC(CC)C=N1 (stereo unspecified)

>  <Bound operator>
=

>  <pKi>
7.50

$$$$
>  <Compound>
O=C(c1ccc(F)cc1)C1CCN(CCc2ccc(I)cc2)CC1

>  <Bound operator>
=

>  <pKi>
6.52

$$$$
>  <Compound>
CSc1nn2c(C)cc(C)nc2c1S(=O)(=O)c1ccccc1

>  <Bound operator>
=

>  <pKi>
8.92

$$$$
>  <Compound>
CN(C)[C@H]1c2cc3ccn(S(=O)(=O)c4ccccc4)c3cc2[C@H]1CCO (relative stereo)

>  <Bound operator>
=

>  <pKi>
7.40

$$$$
>  <Compound>
CCC(Sc1ccccc1)c1nc(N)nc(N2CCN(C)CC2)n1 (racemic)

>  <Bound operator>
=

>  <pKi>
6.90

$$$$
>  <Compound>
O=S(=O)(c1cccc2ccccc12)c1cccc2nc(N3CCNCC3)oc12

>  <Bound operator>
=

>  <pKi>
8.15

$$$$
>  <Compound>
NC(=O)c1ccccc1OCCCN1CCN(c2cccc3c2ccn3Cc2ccccc2F)CC1

>  <Bound operator>
=

>  <pKi>
7.64

$$$$
>  <Compound>
C[C@H](NCc1ccc(OCCCCCN2CCN(c3cccc4c3ccn4Cc3cccc(Cl)c3)CC2)cc1)C(N)=O

>  <Bound operator>
=

>  <pKi>
6.63

$$$$
>  <Compound>
O=C1CCc2ccc(OCCCCNCCc3cn(S(=O)(=O)c4ccccc4)c4ccccc34)cc2N1

>  <Bound operator>
=

>  <pKi>
7.28

$$$$
>  <Compound>
COc1cc(OC)c(C2NCCc3c2[nH]c2ccc(Cl)cc32)cc1OC (stereo unspecified)

>  <Bound operator>
=

>  <pKi>
7.54

$$$$
>  <Compound>
O=S(=O)(c1cncc2ccccc12)N1CCC[C@H]1CCN1CCN(c2cccc3[nH]ccc23)CC1

>  <Bound operator>
=

>  <pKi>
5.69

$$$$
>  <Compound>
CCN/C(=N\S(=O)(=O)c1ccc(N)cc1)N1CC(CC)C=N1 (stereo unspecified)

>  <Bound operator>
=

>  <pKi>
8.14

$$$$
>  <Compound>
O=C1c2ccccc2S(=O)(=O)N1CCCCN1CCN(c2ncccn2)CC1

>  <Bound operator>
=

>  <pKi>
4.77

$$$$
>  <Compound>
O=C1Nc2ccccc2C12CCN(CCN1CCN(c3ccc(Cl)c(Cl)c3)CC1)C2 (stereo unspecified)

>  <Bound operator>
=

>  <pKi>
5.95

$$$$
>  <Compound>
CCN1CCC(n2cc(S(=O)(=O)c3c(Cl)nc4sccn34)c3cccnc32)C1 (stereo unspecified)

>  <Bound operator>
=

>  <pKi>
8.85

$$$$
>  <Compound>
O=S(=O)(c1cccc2ccccc12)c1n[nH]c2cc(NCC3CCNCC3)ccc12

>  <Bound operator>
=

>  <pKi>
7.36

$$$$
>  <Compound>
CC(Oc1ccccc1Cl)c1nc(N)nc(N2CCN(C)CC2)n1 (stereo unspecified)

>  <Bound operator>
=

>  <pKi>
7.55

$$$$
>  <Compound>
CCC1(CCCCN2CCN(c3ccc(Cl)cc3)CC2)C(=O)Nc2cc(F)ccc21 (stereo unspecified)

>  <Bound operator>
=

>  <pKi>
6.73

$$$$
>  <Compound>
Fc1ccccc1Sc1ccc2c(c1)N1CCNCC1C2 (stereo unspecified)

>  <Bound operator>
=

>  <pKi>
6.82

$$$$
>  <Compound>
Cc1ccc(Sc2ccc3c(c2)N2CCNCC2C3)cc1 (stereo unspecified)

>  <Bound operator>
=

>  <pKi>
6.96

$$$$
>  <Compound>
CCN/C(=N\S(=O)(=O)c1cccc(Cl)c1)N1CC2(C=N1)CCCC2

>  <Bound operator>
=

>  <pKi>
8.19

$$$$
>  <Compound>
CCCCNCc1ccc(Cl)c(-c2ccccc2OC)c1

>  <Bound operator>
=

>  <pKi>
6.62

$$$$
>  <Compound>
CC(Sc1ccc(Cl)c(Cl)c1)c1nc(N)nc(N2CCN(C)CC2)n1 (racemic)

>  <Bound operator>
=

>  <pKi>
6.82

$$$$
>  <Compound>
NC1CCN(c2ccc3[nH]nc(S(=O)(=O)c4cccc5c(Cl)cccc45)c3c2)CC1

>  <Bound operator>
=

>  <pKi>
8.34

$$$$
>  <Compound>
O=S(=O)(c1cccc2ncccc12)N1CCC[C@@H]1CCN1CCN(c2cccc3c2OCCO3)CC1

>  <Bound operator>
=

>  <pKi>
6.00

$$$$
>  <Compound>
CN[C@H]1c2ccc3c(ccn3S(=O)(=O)c3ccccc3)c2[C@@H]1CCO (relative stereo)

>  <Bound operator>
=

>  <pKi>
6.80

$$$$
>  <Compound>
O=c1c(-c2ccc(Cl)cc2)c2n(c(=O)n1CCCCN1CCCC(c3c[nH]c4ccccc34)C1)CCCC2 (stereo unspecified)

>  <Bound operator>
=

>  <pKi>
5.88

$$$$
>  <Compound>
O=S(=O)(NC1CCN(CCOc2cccc3c2CCCC3)C1)c1ccc(F)cc1 (stereo unspecified)

>  <Bound operator>
=

>  <pKi>
7.02

$$$$
>  <Compound>
CCNC(=O)c1cccc(NC2=NC(N)=NC3(CCCCC3)N2)c1

>  <Bound operator>
=

>  <pKi>
5.23

$$$$
>  <Compound>
N#Cc1cc(F)cc(C#Cc2csc(F)n2)c1

>  <Bound operator>
<

>  <pKi>
5.00

$$$$
>  <Compound>
CSc1nn2c(N3CCNCC3)c3c(nc2c1S(=O)(=O)c1ccccc1)CCC3

>  <Bound operator>
=

>  <pKi>
8.60

$$$$
